target: human V2 receptor (Homo sapiens, UniProt P30518)
Construct: expressed in transfected cells; host or cells: CHO K1 (ATCC) expressing firefly luciferase under a CRE-responsive promoter
Sequence (P30518 whole entry): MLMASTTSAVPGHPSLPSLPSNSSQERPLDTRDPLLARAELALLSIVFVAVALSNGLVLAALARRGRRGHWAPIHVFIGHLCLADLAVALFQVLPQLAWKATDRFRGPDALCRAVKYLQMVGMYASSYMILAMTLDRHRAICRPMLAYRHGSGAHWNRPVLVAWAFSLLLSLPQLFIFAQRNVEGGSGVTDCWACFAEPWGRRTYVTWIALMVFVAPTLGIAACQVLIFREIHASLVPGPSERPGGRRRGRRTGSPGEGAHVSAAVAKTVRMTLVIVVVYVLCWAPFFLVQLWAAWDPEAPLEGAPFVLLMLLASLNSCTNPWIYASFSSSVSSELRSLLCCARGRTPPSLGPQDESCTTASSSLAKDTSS
measurementNotes: Cellular in vitro assay for determining vasopressin receptor activity, V2 receptor cell line (CHO, CRE-luciferase)
Assay type: cell-based
testParameters: CHO cell line transfected with human V2 receptor; [Arg8]-vasopressin at EC50 concentration; read-out: IC50 hV2
Attribute: log10 IC50
readoutType: log10 IC50 (log10 of the value in µM)

• CC1(NC(=O)c2ncccc2-n2cnc(Cn3nc(-c4ccc(Cl)cc4)n(C[C@@H](O)C(F)(F)F)c3=O)n2)CC1 [Example 483] = 0.60
• NC(=O)C1CCCN1C(=O)c1cccc(Cl)c1-n1cnc(Cn2nc(-c3ccc(Cl)cc3)n(C[C@@H](O)C(F)(F)F)c2=O)n1 (mixture of isomers) [Example 400] = 1.51
• O=C(c1ncccc1-n1cnc(Cn2nc(-c3ccc(Cl)cc3)n(C[C@H](O)C(F)(F)F)c2=O)n1)N1CCOCC1 [Example 446] = 1.33
• CC1(NC(=O)c2cccnc2-n2nc(Cn3nc(-c4ccc(Cl)cc4)n(C[C@H](O)C(F)(F)F)c3=O)nc2C(=O)N2CCNC(=O)C2)CC1 [Example 525] = 0.82
• O=C(NCC(F)(F)F)c1cc(F)ccc1-n1cnc(Cn2nc(-c3ccc(Cl)cc3)n(C[C@H](O)C(F)(F)F)c2=O)n1 [Example 426] = -0.90
• O=C(NC1CC1(F)F)c1ncccc1-n1cnc(Cn2nc(-c3ccc(Cl)cc3)n(C[C@@H](O)C(F)(F)F)c2=O)n1 (stereo partly drawn) [Example 460] = 0.60
